Hello, the source for this data is paper PMC6222509, in case you need it.

# Test: lipophilicity by isocratic RP-HPLC (log k, k, log kw, S)
# Assay type: physicochemical
# Experimental setup: extrapolated to 100% water from log k versus ϕM
# Excerpt: Octadecyl-functionalized silica gel was currently used as a stationary phase (SPh) and a […] of two solvents at different volume ratios modified retention properties of the SPh. […] The MeOH modifier was preferred because of similarity of both observed and extrapolated lipophilicity parameters with the ones determined in the octan-1-ol/water partition system, considering also sensitivity to H-bond donor properties of investigated compounds [41]. […]
# cutoff 5 applies to log kw; >= gives T, < gives F

Consider the worked cases shown below.
{"columns": ["Compound", "Group label"],
 "data": [
  ["CCCCOc1cccc(NC(=O)OC(CN(CCC)CCC)CN2CCCCCC2)c1 (centres unmarked) [1m]", "F"],
  ["CCCCCOc1ccccc1NC(=O)OC(CN(CCC)CCC)CN1CCCC1 (centres unmarked) [1b]", "F"],
  ["CCCCCCOc1ccccc1NC(=O)OC(CN(CCC)CCC)CN1CCCCCC1 (centres unmarked) [1k]", "T"],
  ["CCCCCCCOc1cccc(NC(=O)OC(CN(CCC)CCC)CN2CCCCCC2)c1.O=C(O)C(=O)O (centres unmarked) [1l]", "T"]
]}

Could you now look at the following compound, please?
Is the recorded value of log kw equal to or greater than 5 for this compound? CCCCCOc1cccc(NC(=O)OC(CN(CCC)CCC)CN2CCCC2)c1.Cl.Cl (centres unmarked) [1f]
F
